system: Ramos cells with BTK WT; experiment: Phosphor-BTK(Y223) assay, suspended cells; type: cell-based; conditions: Homo sapiens, Ramos, phosphorylated BTK Y223, Ramos cells with BTK WT
Measured IC50 values are reported for all entries that follow.

The examples below pair each entry with its known result.
{"columns": ["compound", "IC50"],
 "data": [
  ["COc1ccc(F)cc1C(=O)NCc1ccc(-c2ncc(-c3cnc4ccnn4c3)c3[nH]nc(N)c23)cc1", "> 50 nM"],
  ["COc1ccc(F)cc1C(=O)NCc1ccc(-c2nc(C3CCSCC3)cc3[nH]nc(N)c23)cc1", "5 to 10 nM"],
  ["COc1ccc(F)cc1C(=O)NCc1ccc(-c2nc(C(F)F)c(-c3ncccn3)c3[nH]nc(N)c23)cc1", "≤ 5 nM"],
  ["COc1ccc(F)cc1C(=O)NCc1ccc(-c2nc(C(C)C(F)(F)F)c(-c3ccnnc3)c3[nH]nc(N)c23)cc1 (stereo not drawn)", "> 50 nM"],
  ["COc1ccc(F)cc1C(=O)NCc1ccc(-c2ncc(-c3ccc(CN4CCOCC4)cn3)c3[nH]nc(N)c23)cc1", "≤ 5 nM"]
]}

Okay, now this compound:
What value of IC50 has been reported for the following compound? COc1ccc(F)cc1C(=O)NCc1ccc(-c2ncc(-c3ccc(N4CCN(C)C[C@H]4C)cn3)c3[nH]nc(N)c23)cc1 ≤ 5 nM

----------
molecular target: TEC (Homo sapiens)
Sequence (P42680 whole entry): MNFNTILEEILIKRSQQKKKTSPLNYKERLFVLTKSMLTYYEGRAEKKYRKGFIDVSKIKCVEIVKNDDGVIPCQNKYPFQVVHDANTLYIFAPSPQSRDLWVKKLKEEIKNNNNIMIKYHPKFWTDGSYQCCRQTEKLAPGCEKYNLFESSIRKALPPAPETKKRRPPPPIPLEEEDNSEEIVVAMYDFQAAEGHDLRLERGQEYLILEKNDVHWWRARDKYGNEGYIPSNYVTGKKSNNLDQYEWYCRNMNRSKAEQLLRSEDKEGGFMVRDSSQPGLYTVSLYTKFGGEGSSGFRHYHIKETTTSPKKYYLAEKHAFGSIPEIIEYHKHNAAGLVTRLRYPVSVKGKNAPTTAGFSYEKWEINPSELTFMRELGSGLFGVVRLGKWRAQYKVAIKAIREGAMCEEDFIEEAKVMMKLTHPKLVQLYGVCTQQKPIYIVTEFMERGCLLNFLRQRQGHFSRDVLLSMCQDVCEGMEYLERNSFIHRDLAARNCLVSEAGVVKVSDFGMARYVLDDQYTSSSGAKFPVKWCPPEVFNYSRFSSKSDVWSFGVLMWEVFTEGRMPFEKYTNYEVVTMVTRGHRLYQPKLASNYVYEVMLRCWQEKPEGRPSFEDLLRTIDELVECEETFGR
Entries and their measured IC50 follow.

Worked cases, IC50 given:
{"columns": ["compound", "IC50"],
 "data": [
  ["COc1ccc(F)cc1C(=O)NCc1ccc(-c2nc(C(C)C(F)(F)F)cc3[nH]nc(N)c23)cc1 (single isomer, unassigned)", "50 to 500 nM"],
  ["COc1ccc(F)cc1C(=O)NCc1ccc(-c2ncc(-c3ncc(C(F)(F)F)cn3)c3[nH]nc(N)c23)cc1", "50 to 500 nM"],
  ["COc1ccc(F)cc1C(=O)NCc1ccc(-c2ncc(-c3cn(C)cn3)c3[nH]nc(N)c23)cc1", "50 to 500 nM"],
  ["COc1ccc(F)cc1C(=O)NCc1ccc(-c2ncc(-c3ccc(OC(F)(F)F)cn3)c3[nH]nc(N)c23)cc1", "5 to 50 nM"],
  ["COc1ccc(F)cc1C(=O)NCc1ccc(-c2ncc(-c3ccc(OCCN(C)C)cn3)c3[nH]nc(N)c23)cc1", "5 to 50 nM"]
]}

Please look up its IC50: COc1ccc(F)cc1C(=O)NCc1ccc(-c2ncc(-c3cc(NC(=O)C4CC4)ccn3)c3[nH]nc(N)c23)cc1 5 to 50 nM

Could you share which IC50 value was measured for COc1ccc(F)cc1C(=O)NCc1ccc(-c2nc(C(C)C(F)(F)F)c(-c3ncccn3)c3[nH]nc(N)c23)cc1 (single isomer, unassigned) ? 5 to 50 nM

----------
test system: OCI-LY10 cells; experiment: Viability assay of OCI-LY10 cells (CTG); format: cell-based; details: Homo sapiens, OCI-Ly10, 120 h, cell viability, read-out: OCl-Ly10
// reported IC50 for each item listed

Worked cases, answers included:
{"columns": ["compound", "system", "result value"],
 "data": [
  ["COc1ccc(F)cc1C(=O)NCc1ccc(-c2ncc(-c3ccncn3)c3[nH]nc(N)c23)cc1", "OCI-LY10 cells", "10 to 50 nM"],
  ["COc1ccc(F)cc1C(=O)NCc1ccc(-c2ncc(-c3ccc(N4CCN(C)C[C@H]4C)cn3)c3[nH]nc(N)c23)cc1", "OCI-LY10 cells", "≤ 5 nM"],
  ["COc1ccc(F)cc1C(=O)NCc1ccc(-c2ncc(-c3ccc(C(F)(F)F)cn3)c3[nH]nc(N)c23)cc1", "OCI-LY10 cells", "10 to 50 nM"],
  ["COc1ccc(F)cc1C(=O)NCc1ccc(-c2ncc(-c3ccc(C)cn3)c3[nH]nc(N)c23)cc1", "OCI-LY10 cells", "≤ 5 nM"],
  ["COCCOc1ccc(-c2cnc(-c3ccc(CNC(=O)c4cc(F)ccc4OC)cc3)c3c(N)n[nH]c23)nc1", "OCI-LY10 cells", "≤ 5 nM"],
  ["COc1ccc(F)cc1C(=O)NCc1ccc(-c2ncc(-c3ccc(C(C)(C)O)cn3)c3[nH]nc(N)c23)cc1", "OCI-LY10 cells", "≤ 5 nM"],
  ["COc1ccc(F)cc1C(=O)NCc1ccc(-c2nc(C(F)F)c(-c3ncccn3)c3[nH]nc(N)c23)cc1", "OCI-LY10 cells", "10 to 50 nM"],
  ["COc1ccc(F)cc1C(=O)NCc1ccc(-c2nc(C(C)C(F)(F)F)cc3[nH]nc(N)c23)cc1 (single isomer, unassigned)", "OCI-LY10 cells", "10 to 50 nM"],
  ["COc1ccc(F)cc1C(=O)NCc1ccc(-c2nc(C(C)C(F)(F)F)c(-c3cc(C)[nH]n3)c3[nH]nc(N)c23)cc1 (stereo not shown)", "OCI-LY10 cells", "5 to 10 nM"]
]}

IC50 for COc1ccc(F)cc1C(=O)NCc1ccc(-c2ncc(-c3ccccn3)c3[nH]nc(N)c23)cc1 ? 5 to 10 nM

----------
Measured IC50 (TEC (Homo sapiens, UniProt P42680))

Solved cases below.
{"columns": ["smiles record", "IC50"],
 "data": [
  ["COc1ccc(F)cc1C(=O)NCc1ccc(-c2ncc(-c3nc4ccccn4n3)c3[nH]nc(N)c23)cc1", "5 to 50 nM"],
  ["COc1ccc(F)cc1C(=O)NCc1ccc(-c2ncc(-c3cnccn3)c3[nH]nc(N)c23)cc1", "50 to 500 nM"],
  ["COc1ccc(F)cc1C(=O)NCc1ccc(-c2ncc(-c3cc4cnccn4n3)c3[nH]nc(N)c23)cc1", "5 to 50 nM"]
]}

Field: IC50 (TEC (Homo sapiens, UniProt P42680)). Entry: COc1ccc(F)cc1C(=O)NCc1ccc(-c2ncc(-c3ccncc3)c3[nH]nc(N)c23)cc1 > 500 nM

----------
target: BTK C481S (Homo sapiens, UniProt Q06187, C481S); assay: Kinase activity inhibition assay (HTRF TK Kit)
Sequence (Q06187 whole entry C481S): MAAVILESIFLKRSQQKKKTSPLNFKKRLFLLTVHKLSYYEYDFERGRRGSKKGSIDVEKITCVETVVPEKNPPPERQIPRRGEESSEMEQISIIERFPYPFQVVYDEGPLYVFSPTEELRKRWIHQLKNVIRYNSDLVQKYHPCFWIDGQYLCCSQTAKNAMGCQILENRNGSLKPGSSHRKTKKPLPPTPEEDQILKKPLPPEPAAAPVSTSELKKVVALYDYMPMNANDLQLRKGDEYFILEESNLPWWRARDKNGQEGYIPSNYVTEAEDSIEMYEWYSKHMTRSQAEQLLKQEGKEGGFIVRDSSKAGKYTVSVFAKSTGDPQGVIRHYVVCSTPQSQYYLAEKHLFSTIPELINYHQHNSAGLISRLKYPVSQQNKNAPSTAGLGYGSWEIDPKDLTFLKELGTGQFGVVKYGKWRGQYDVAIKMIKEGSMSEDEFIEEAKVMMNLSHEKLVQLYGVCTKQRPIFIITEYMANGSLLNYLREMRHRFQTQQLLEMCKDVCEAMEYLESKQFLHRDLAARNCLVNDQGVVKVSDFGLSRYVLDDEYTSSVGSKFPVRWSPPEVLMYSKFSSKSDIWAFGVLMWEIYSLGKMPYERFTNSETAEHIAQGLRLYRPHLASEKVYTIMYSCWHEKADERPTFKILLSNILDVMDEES
measure name: IC50

{"columns": ["compound", "result value"],
 "data": [
  ["C=CC(=O)N1CCCC(c2cc3[nH]nc(N)c3c(-c3ccc(CNC(=O)c4cc(F)ccc4OC)cc3)n2)C1 (centres unmarked) [Example 96]", "1 to 5 nM"],
  ["COc1ccc(F)cc1C(=O)NCc1ccc(-c2ncc(-c3ccc(C)cn3)c3[nH]nc(N)c23)cc1 [Example 37]", "≤ 1 nM"]
]}

Which measured IC50 value corresponds to COc1ccc(F)cc1C(=O)NCc1ccc(-c2ncc(-c3ccc(F)cn3)c3[nH]nc(N)c23)cc1 [Example 21] ? 5 to 50 nM

For the compound shown here, COc1ccc(F)cc1C(=O)NCc1ccc(-c2ncc(-c3cc4ccccn4n3)c3[nH]nc(N)c23)cc1 [Example 69] , give the reported IC50. ≤ 1 nM

Consider the compound shown here: COc1ccc(F)cc1C(=O)NCc1ccc(-c2ncc(-c3ccc(CN4CCCCC4)cn3)c3[nH]nc(N)c23)cc1 [Example 66] What is its recorded IC50? ≤ 1 nM

Quick one: IC50 for COc1ccc(F)cc1C(=O)NCc1ccc(-c2nc(C(C)C(F)(F)F)c(-c3ncccn3)c3[nH]nc(N)c23)cc1 (centres unmarked) [Example 7] ? 1 to 5 nM

Could you tell me which IC50 is on file for COCCOc1ccc(-c2cnc(-c3ccc(CNC(=O)c4cc(F)ccc4OC)cc3)c3c(N)n[nH]c23)nc1 [Example 59] ? ≤ 1 nM

I'd like to know its IC50. The compound in question is COc1ccc(F)cc1C(=O)NCc1ccc(-c2nc(C(F)F)c(-c3ncccn3)c3[nH]nc(N)c23)cc1 [Example 85] 1 to 5 nM

Quick check: IC50 of COc1ccc(F)cc1C(=O)NCc1ccc(-c2ncc(-c3cc[nH]n3)c3[nH]nc(N)c23)cc1 [Example 31] ? 1 to 5 nM

Need IC50 of COc1ccc(F)cc1C(=O)NCc1ccc(-c2nc(C(C)C(F)(F)F)c(-c3ncccn3)c3[nH]nc(N)c23)cc1 (single isomer, unassigned) [Example 7-1] , thanks. 1 to 5 nM

Quick one: IC50 of COc1ccc(F)cc1C(=O)NCc1ccc(-c2ncc(-c3ccc(P(C)(C)=O)cn3)c3[nH]nc(N)c23)cc1 [Example 56] ? 1 to 5 nM

Request the reported IC50 associated with COc1ccc(F)cc1C(=O)NCc1ccc(-c2ncc(-c3ccc(F)cn3)c3[nH]nc(N)c23)c(F)c1 [Example 82] 1 to 5 nM

Returns the measured IC50 for the input compound. Input: COc1ccc(F)cc1C(=O)NCc1ccc(-c2ncc(-c3ccc(C(F)F)cn3)c3[nH]nc(N)c23)cc1 [Example 48] 1 to 5 nM

For the compound COc1ccc(F)cc1C(=O)NCc1ccc(-c2ncc(-c3ccc(C(=O)N4C[C@@H](C)O[C@H](C)C4)cn3)c3[nH]nc(N)c23)cc1 [Example 54] , what IC50 is on record? 1 to 5 nM

Would you kindly share the measured IC50 for COc1ccc(F)cc1C(=O)NCc1ccc(-c2nc(C(C)C(F)(F)F)c(-c3cc(C)[nH]n3)c3[nH]nc(N)c23)cc1 (centres unmarked) [Example 9] ? 5 to 50 nM

Which IC50 reading was recorded for the compound COc1ccc(F)cc1C(=O)NCc1ccc(-c2ncc(-c3ncccn3)c3[nH]nc(N)c23)cc1 [Example 17] ? 1 to 5 nM

Suppose we examine the compound COc1ccc(F)cc1C(=O)NCc1ccc(-c2nc([C@H]3CC[C@H](CO)CC3)cc3[nH]nc(N)c23)cc1 [Example 117] ; what IC50 value has been reported? 1 to 5 nM

Sample COc1ccc(F)cc1C(=O)NCc1ccc(-c2ncc(-c3cc4n(n3)CCN(C)C4)c3[nH]nc(N)c23)cc1 [Example 71] — what was its IC50? ≤ 1 nM

Looking for the measured IC50 of COc1ccc(F)cc1C(=O)NCc1ccc(-c2ncc(-c3ccc(C4COC4)cn3)c3[nH]nc(N)c23)cc1 [Example 43] , can you help? ≤ 1 nM

Item COc1ccc(F)cc1C(=O)NCc1ccc(-c2ncc(-c3ccc(N4CCOCC4)cn3)c3[nH]nc(N)c23)cc1 [Example 76] has what recorded IC50? ≤ 1 nM

// provenance: patent EP4741392A1
